ASSAYED TARGET: SARS-CoV-2-S1 (RBD)-His protein (Trenzyme) (SARS-CoV-2, UniProt P0DTC2 319-541)
ASSAY NAME: competition ELISA, RBD binding to coated ACE2
OBSERVED PROPERTY: IC50 (nM)
One number for each entry, in nM.

NI-607.531_E7 (antibody, V domains shown, also called F31 E7) VH: EVQLVESGGGVVQPGRSLRLSCAASGFTFNFYSMHWVRQVPGKGLEWVAVISFDGSTKHYAESLRGRFAVSRDNSKSTLYLQMNSLRPEDTAVYYCASPPLSPIPAAGTPLDYWGQGTLVTVSS VL: EIVMTQSPDSLAVSLGERATINCKSSQSIFYRSDDKDFLAWYQQKPGQPPKLLISWASTRESGVPDRFSGSGSGTDFTLTISSLQAEDVAVYYCQQFYYTPFTFGPGTKLEIK	3.67
NI-607.274_E5 (antibody, V domains shown) VH: EVQLVESGGGMVQPGRSLRLSCAGSGFTFSTHGMHWVRQAPGKGLEWITGITYDGSDEFYADSVKGRFTIARDNSKNMLYLQMNSLRAEDTAVYFCAKDLEWLTNYVDHWGQGTLVTVSS VL: DIVMTQSPGTLSVSPGERATLSCRASQSVNYNLAWYQQKPGQAPRLLIFDASTRATGIPARFTGSGSGTEFTLTISSLQSEDFAVYYCQQSNAWLTFGGGTKLEIK	12.6
NI-607.649_B11 (antibody, V domains shown) VH: QVQLVQSGAEVKKPGSSVKVSCKASGGTFSNYAISWVRQAPGQGLEWMGGIIPIFGTANYAQKFQGRVTITADESTSTAYMELSSLRSEDTAVYYCAGDRWYYDSSGYPTPDEYFQHWGQGTQVTVSS VL: QSVLTQPPSVSGAPGQRVTISCTGSSSNIGAGYDVHWYQQLPGTAPKLLIYGNSNRPSGVPDRFSGSKSGTSASLAITGLQAEDEADYYCQSYDSSLSGVVFGGGTKLTVL	0.08

Items follow; give IC50 for each.
1. NI-607.426_F11 (antibody, V domains shown) VH: QVQLVESGGGLVQPGGSLRLSCAASGFTFSSYWMSWVRQAPGKGLEWVANIKQDGSEKYYVDSVKGRFTISRDNAKNSLYLQMNSLRAEDTAVYYCARGLVGQWLGVDYWGQGTLVTVSS VL: QSVLTQPHSVSESPGKTVTISCTGSSGSIASNYVQWYQQRPGSAPTTVIYEDNQRPSGVPDRFSGSIDSSSNSASLTISGLKTEDEADYYCQSYDSSNWVFGGGTKLTVL
2. NI-607.761_B7 (antibody, V domains shown) VH: EVQLVESGGGVVQPGRSLRLSCAASGFTFTRYGMHWVRQAPGKGLEWVAVIWYDGNNKNYEDSVRGRFTISRDNSKNTLFLQMNSLRAEDTAVYYCARGRRGGYSYGLFDYWGQGILVTVSS VL: AIRMTQSPSSLSASVGDRVTITCQASQDISNYLNWYQQKPGKAPKLLIYDASNLETGVPSRFSGSGSGTDFTFTISSLQPEDVATYSCQQYDNLPLTFGGGTKVEIK

1: 1.14; 2: 56
